Data credit: ChEMBL document CHEMBL3991601

# target-or-test-system: Uncharacterized protein FLJ45252 (Homo sapiens, UniProt Q6ZSR9); note: in the data inactive means no Kd found up to 30 µM
# Sequence (Q6ZSR9 whole entry): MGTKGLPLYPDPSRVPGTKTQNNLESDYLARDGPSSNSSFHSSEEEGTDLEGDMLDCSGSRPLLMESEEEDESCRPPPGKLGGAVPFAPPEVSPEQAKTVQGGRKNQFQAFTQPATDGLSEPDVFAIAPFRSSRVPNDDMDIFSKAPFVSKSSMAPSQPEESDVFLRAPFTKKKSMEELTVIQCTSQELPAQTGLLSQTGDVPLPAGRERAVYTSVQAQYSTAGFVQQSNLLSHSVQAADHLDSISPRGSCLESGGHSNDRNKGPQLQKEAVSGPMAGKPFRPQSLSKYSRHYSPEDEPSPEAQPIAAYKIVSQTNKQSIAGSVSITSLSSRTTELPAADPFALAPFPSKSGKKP
# assay-setup: read-out: Kd apparent; k-562, colo 205, sk-n-be(2) and mv-4-11
Activity calls are given as the source filed them. Cut-off read from the data, not from the text of the source: actives have a measured Kd and inactives only a lower limit.
Outcomes: Yes for active, No for inactive

{"compound": "COc1cc2nccc(Oc3ccc(NC(=O)C4(C(=O)Nc5ccc(F)cc5)CC4)cc3)c2cc1OC [CABOZANTINIB]", "class-label": "No"}
{"compound": "COc1cc2c(N3CCN(C(=O)Nc4ccc(OC(C)C)cc4)CC3)ncnc2cc1OCCCN1CCCCC1", "class-label": "No"}
{"compound": "COCCN1CCN(Cc2ccc(-c3n[nH]c4c3C(=O)c3c(NC(=O)NN5CCOCC5)cccc3-4)cc2)CC1", "class-label": "Yes"}
{"compound": "Cn1cc(-c2[nH]c3cc(NC(=O)[C@H](N)C4CCCCC4)cc4c3c2C=NNC4=O)cn1", "class-label": "Yes"}
{"compound": "CCc1nc(C(N)=O)c(Nc2ccc(N3CCC(N4CCN(C)CC4)CC3)c(OC)c2)nc1NC1CCOCC1", "class-label": "Yes"}
{"compound": "CN1CCN(c2nc(C3=C(c4c[nH]c5ccccc45)C(=O)NC3=O)c3ccccc3n2)CC1", "class-label": "No"}
{"compound": "O=C(NOC[C@H](O)CO)c1ccc(F)c(F)c1Nc1ccc(I)cc1F", "class-label": "No"}
